# Test system: Mycobacterium tuberculosis
# Assay Explanation: Inhibitory activity against Mycobacterium tuberculosis H37Rv
# Type: functional
Reported Metric: MIC

CC1=C(O)C(C)(C/C=C/c2ccccc2)SC1=O (stereo unspecified) : > 1000 µM
C=CCCCC1(C)SC(=O)C(C)=C1O (stereo unspecified) : > 1000 µM
C/C=C/CC1(C)SC(O)=C(C)C1=O (stereo unspecified) : > 1000 µM
CCCCCC(C)C1(C)SC(O)=C(C)C1=O (stereo unspecified) : 1000 µM
CC1=C(O)C(C)(Cc2c(C)cc(C)cc2C)SC1=O (stereo unspecified) : 1000 µM
CC1=C(O)C(C)(Cc2cc(C)ccc2C)SC1=O (stereo unspecified) : > 1000 µM
CC1=C(O)SC(C)(C(C)C)C1=O (stereo unspecified) : > 1000 µM
CCCCCCCCCCCCCCCC1(C)SC(O)=C(C)C1=O (stereo unspecified) : 500 µM

Give MIC for the following compound: C=C(C)CC1(C)SC(O)=C(C)C1=O (stereo unspecified)
> 1000 µM
